Origin of values: patent US11267815B2

STUDY SYSTEM: FGFR1 (Homo sapiens (Human), UniProt P11362)
Sequence (P11362 22-822): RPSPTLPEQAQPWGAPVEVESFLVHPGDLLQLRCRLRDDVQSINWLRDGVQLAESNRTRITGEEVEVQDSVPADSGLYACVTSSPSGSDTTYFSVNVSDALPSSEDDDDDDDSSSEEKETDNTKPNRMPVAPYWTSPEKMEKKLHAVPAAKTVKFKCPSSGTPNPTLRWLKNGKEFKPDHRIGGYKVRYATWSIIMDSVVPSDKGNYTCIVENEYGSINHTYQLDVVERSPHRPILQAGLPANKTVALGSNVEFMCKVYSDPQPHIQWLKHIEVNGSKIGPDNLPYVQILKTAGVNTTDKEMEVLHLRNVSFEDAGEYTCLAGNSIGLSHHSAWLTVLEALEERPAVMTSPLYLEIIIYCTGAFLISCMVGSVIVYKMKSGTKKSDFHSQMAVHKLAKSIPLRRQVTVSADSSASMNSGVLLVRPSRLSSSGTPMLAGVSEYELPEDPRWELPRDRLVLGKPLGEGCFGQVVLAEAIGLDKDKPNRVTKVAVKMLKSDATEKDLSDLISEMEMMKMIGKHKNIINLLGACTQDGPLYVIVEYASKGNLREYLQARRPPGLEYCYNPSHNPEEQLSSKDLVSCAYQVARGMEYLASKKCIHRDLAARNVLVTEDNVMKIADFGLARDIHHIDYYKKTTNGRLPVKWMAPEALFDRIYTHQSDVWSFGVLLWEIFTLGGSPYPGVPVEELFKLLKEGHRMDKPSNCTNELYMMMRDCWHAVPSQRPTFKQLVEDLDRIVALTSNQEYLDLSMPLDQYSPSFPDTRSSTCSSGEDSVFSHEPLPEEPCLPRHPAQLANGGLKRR
EXPERIMENT DESCRIPTION: Inhibitory activity on kinase FGFR1 (Caliper mobility shift)
Type: biochemical
ASSAY CONDITIONS: read-out: IC50 of inhibitory activity on FGFR1
ASSAY ENDPOINT: IC50

Exam item: Form field: reported IC50 of C=CC(=O)N1CCN(CCCc2cn3c(n2)c(-c2c(Cl)c(OC)cc(OC)c2Cl)cc2cnc(NC)nc23)CC1
Marked response: < 1 nM

---

STUDY SYSTEM: FGFR4 (Homo sapiens (Human))
Sequence (P22455 22-802): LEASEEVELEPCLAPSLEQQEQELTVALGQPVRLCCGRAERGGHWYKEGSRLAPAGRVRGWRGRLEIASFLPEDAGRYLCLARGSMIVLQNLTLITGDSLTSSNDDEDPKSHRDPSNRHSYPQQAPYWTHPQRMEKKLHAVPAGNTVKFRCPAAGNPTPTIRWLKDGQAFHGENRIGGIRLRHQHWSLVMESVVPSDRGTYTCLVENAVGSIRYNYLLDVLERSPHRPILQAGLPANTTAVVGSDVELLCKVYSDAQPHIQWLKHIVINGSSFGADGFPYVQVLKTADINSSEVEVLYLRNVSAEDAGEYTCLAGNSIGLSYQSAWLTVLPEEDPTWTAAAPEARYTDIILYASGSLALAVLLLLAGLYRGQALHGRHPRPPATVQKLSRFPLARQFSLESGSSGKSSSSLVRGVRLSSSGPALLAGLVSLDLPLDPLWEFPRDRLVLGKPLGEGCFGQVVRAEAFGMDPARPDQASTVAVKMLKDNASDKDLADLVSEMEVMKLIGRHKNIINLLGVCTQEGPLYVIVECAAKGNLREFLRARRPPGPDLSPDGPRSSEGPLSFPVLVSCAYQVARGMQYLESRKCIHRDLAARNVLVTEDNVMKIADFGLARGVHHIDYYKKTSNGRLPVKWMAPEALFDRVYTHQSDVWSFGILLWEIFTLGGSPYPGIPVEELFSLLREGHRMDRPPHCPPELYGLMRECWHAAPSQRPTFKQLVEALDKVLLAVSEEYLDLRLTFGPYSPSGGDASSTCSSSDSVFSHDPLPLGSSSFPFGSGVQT
EXPERIMENT DESCRIPTION: Inhibitory activity on kinase FGFR4 (Caliper mobility shift)
Format: biochemical
ASSAY CONDITIONS: read-out: IC50 of inhibitory activity on FGFR4
ASSAY ENDPOINT: IC50

Exam item: Form field: reported IC50 of C=CC(=O)N1CCN(CCCc2cn3c(n2)c(-c2c(Cl)c(OC)cc(OC)c2Cl)cc2cnc(NC)nc23)CC1
Marked response: < 1 nM
